assay.remarks: Aqueous solubilities of N-alkylalkano and N-H hydroxamic acids (Table 1)
Assay type: physicochemical
assay.readout: Solubility (25° C.) (ppm)

1. CCCCCCCCCCCCCCCC(=O)N(C)O [N--methylhexadecanohydroxamic acid]; 1.3
2. CCCCCCCCC(=O)N(C)O [N-methylnonanohydroxamic acid]; 409.

[P] CCCCCCCCCC(=O)N(O)CCCCCC [N--hexyldecanohydroxamic acid]
[Q] CCCCCCCCCC(CCCCCCCCC)N(O)C(=O)C1CCCCC1
[R] CCCCCCCCCC(=O)N(O)C(C)C [N--isopropyldecanohydroxamic acid]
Query block: Please give the order of these compounds when sorted by Solubility (25° C.), largest value leading. Give the labels in the order specified.
Result block: R, P, Q
(R: 3.9 ppm, P: 1.6 ppm, Q: 0.7 ppm)
